target: Rhesus PDE2A3 (Macaca mulatta, UniProt B3VTJ2); assay: PDE2 fluorescence polarization (IMAP FP) inhibition assay, rhesus enzyme; type: biochemical, rhesus macaque; conditions: Rhesus PDE2, Lab A; read-out: Rhesus PDE2 Ki (nM) - Lab A
Sequence (B3VTJ2 1-941): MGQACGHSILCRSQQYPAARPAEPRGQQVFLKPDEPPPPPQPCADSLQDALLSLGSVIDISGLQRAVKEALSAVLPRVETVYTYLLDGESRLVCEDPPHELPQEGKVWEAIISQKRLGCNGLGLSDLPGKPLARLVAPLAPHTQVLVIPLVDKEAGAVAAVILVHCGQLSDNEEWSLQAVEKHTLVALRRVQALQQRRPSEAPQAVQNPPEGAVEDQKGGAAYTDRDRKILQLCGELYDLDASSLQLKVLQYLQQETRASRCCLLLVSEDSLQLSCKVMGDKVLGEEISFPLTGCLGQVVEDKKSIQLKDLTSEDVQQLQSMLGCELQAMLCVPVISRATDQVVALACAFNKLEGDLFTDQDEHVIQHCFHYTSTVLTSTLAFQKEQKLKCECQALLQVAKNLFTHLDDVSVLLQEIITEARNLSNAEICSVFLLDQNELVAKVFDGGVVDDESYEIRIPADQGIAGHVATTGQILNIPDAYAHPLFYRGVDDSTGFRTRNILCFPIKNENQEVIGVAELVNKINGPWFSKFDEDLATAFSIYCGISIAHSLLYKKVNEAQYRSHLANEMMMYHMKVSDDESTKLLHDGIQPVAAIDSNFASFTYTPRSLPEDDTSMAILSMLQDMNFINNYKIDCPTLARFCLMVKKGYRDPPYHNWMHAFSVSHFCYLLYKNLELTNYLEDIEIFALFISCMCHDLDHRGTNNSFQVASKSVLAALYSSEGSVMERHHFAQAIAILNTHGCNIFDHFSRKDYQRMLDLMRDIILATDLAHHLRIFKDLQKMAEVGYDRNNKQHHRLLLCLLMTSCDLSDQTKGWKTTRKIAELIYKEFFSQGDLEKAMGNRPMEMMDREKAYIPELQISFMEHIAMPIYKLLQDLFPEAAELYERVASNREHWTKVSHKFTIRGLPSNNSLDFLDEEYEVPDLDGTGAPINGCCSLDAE
parameter: Ki (nM)

In the examples that follow, each entry is paired with its recorded Ki.
C[C@@H](NC(=O)c1cc(=O)[nH]c(-c2ncccn2)n1)c1ccc(C(F)(F)F)cc1 :: 11
CC[C@@H](NC(=O)c1cc(=O)[nH]c(C2CC2)n1)c1ccc(OC(F)(F)F)cc1 :: 8.3
C[C@@H](NC(=O)c1cc(=O)[nH]c(-c2ccccc2)n1)c1ccc(C(F)(F)F)cc1F :: 29
O=C(NC1(c2ccc(OC(F)(F)F)cc2)CC1)c1cc(=O)[nH]c(-c2ncccn2)n1 :: 46
COCc1nc(C(=O)N[C@@H](c2ccc(C(F)(F)F)c(F)c2)C2CC2)cc(=O)[nH]1 :: 73
CC(C)[C@@H](NC(=O)c1cc(=O)[nH]c(C2CC2)n1)c1ccc(C(F)(F)F)c(F)c1 :: 2
COc1ccc(C(NC(=O)c2cc(=O)[nH]c(C3CC3)n2)c2ccc(C(F)(F)F)cc2)cc1 (stereo not shown) :: 694
CC[C@@H](NC(=O)c1cc(=O)[nH]c(-c2ncccn2)n1)c1ccc(S(F)(F)(F)(F)F)cc1 :: 2.6
CC(NC(=O)c1cc(=O)[nH]c(-c2ccccc2)n1)c1ccc(C(F)(F)F)nc1 (stereo not shown) :: 345
COCc1nc(C(=O)N[C@H](C)c2ccc(C(C)C)cc2)cc(=O)[nH]1 :: 152

(A) CC(NC(=O)c1cc(=O)[nH]c(-c2ccccc2)n1)c1ccc2c(c1)OCCO2 (stereo not shown)
(B) O=C(N[C@@H](CC(F)(F)F)c1ccc(C(F)(F)F)cc1)c1cc(=O)[nH]c(-c2ccccc2)n1
# compare Ki for A vs B ; return the one with the smaller value Write down the label of the entry you select.
B

(a) Cc1nc(C(=O)NC(C)(C)c2ccc(OC(F)(F)F)c(F)c2)cc(=O)[nH]1
(b) Cc1nc(C(=O)N[C@@H](c2ccc(OC(F)(F)F)cc2)C2CC2)cc(=O)[nH]1
Name the one with the greater Ki value, either a or b as given. Write down the label of the entry you select.
a

Reference for the values: patent US9815796B2
